Recorded composite z-score values for a group of compounds are listed next.
target: Fibroblast growth factor 10 (Homo sapiens); experiment: FGF10 binders on small-molecule microarrays, primary screen, biochemical, small-molecule microarray, 635 nm fluorescence (AID 1102); details: FGF10 binding, fluorescence 635 nm, higher = more signal
VALUE KIND: composite z-score

>  <COMPOUND>
O=C1[C@H]2[C@H]3[C@H](O)[C@H](O)CC(=NO[C@@H]4O[C@H](CO)[C@@H](O)[C@H](O)[C@H]4O)[C@H]3CC[C@H]2C(=O)N1C[C@@H]1CCCO1

>  <TARGET UNDER TEST>
Fibroblast growth factor 10 (Homo sapiens)

>  <TEST RESULT>
0.0269

$$$$
>  <COMPOUND>
CO[C@@H]1COC(=O)[C@H](COCc2ccccc2)NC(=O)CC=C[C@@H](C)[C@H](OC)COC(=O)[C@@H](C)NC(=O)CC=C[C@H]1C

>  <TARGET UNDER TEST>
Fibroblast growth factor 10 (Homo sapiens)

>  <TEST RESULT>
0.0278

$$$$
>  <COMPOUND>
CCN1C(=O)[C@H]2[C@H]3[C@H](O)[C@H](O)CC(=NOC(C)CN4CCCc5nc(C)c(C)cc54)[C@@H]3CC[C@H]2C1=O (some centres undefined)

>  <TARGET UNDER TEST>
Fibroblast growth factor 10 (Homo sapiens)

>  <TEST RESULT>
0.784

$$$$
>  <COMPOUND>
COC(=O)[C@H](Cc1ccccc1)NC(=O)[C@@H](C)CO

>  <TARGET UNDER TEST>
Fibroblast growth factor 10 (Homo sapiens)

>  <TEST RESULT>
0.477

$$$$
>  <COMPOUND>
CC(C)=CCCC(C)=CCON=C1[C@H]2CCn3c(=O)n(-c4ccccc4)c(=O)n3[C@H]2[C@H](O)[C@@H]2O[C@H]12

>  <TARGET UNDER TEST>
Fibroblast growth factor 10 (Homo sapiens)

>  <TEST RESULT>
0.726

$$$$
>  <COMPOUND>
CCOC(=O)[C@H](Cc1ccccc1)NC(=O)CCC1CC(OC(=O)NCc2ccc3c(c2)OCO3)CC2(CCCC(COC(=O)NCCOc3ccccc3)O2)O1 (some centres undefined)

>  <TARGET UNDER TEST>
Fibroblast growth factor 10 (Homo sapiens)

>  <TEST RESULT>
0.881

$$$$
>  <COMPOUND>
Cc1ccc2[nH]c3nc(CCCn4ccnc4-c4ccccc4)nnc3c2c1

>  <TARGET UNDER TEST>
Fibroblast growth factor 10 (Homo sapiens)

>  <TEST RESULT>
0.632

$$$$
>  <COMPOUND>
CC(C)=NOC[C@@H](O)[C@H]1O[C@@H]2OC(C)(C)O[C@@H]2[C@H]1O

>  <TARGET UNDER TEST>
Fibroblast growth factor 10 (Homo sapiens)

>  <TEST RESULT>
0.392

$$$$
>  <COMPOUND>
COC(=O)CC=C[C@@H](C)[C@@H](C=NOC[C@@H](C)[C@H](OCc1ccccc1)C(C)C)OC

>  <TARGET UNDER TEST>
Fibroblast growth factor 10 (Homo sapiens)

>  <TEST RESULT>
0.286

$$$$
>  <COMPOUND>
CCN1C(=O)[C@H]2[C@H]3[C@H](O)[C@H](O)CC(=NOCC[C@@H]4C=C[C@H](OC(C)=O)[C@@H](COC(C)=O)O4)[C@@H]3CC[C@H]2C1=O

>  <TARGET UNDER TEST>
Fibroblast growth factor 10 (Homo sapiens)

>  <TEST RESULT>
0.476

$$$$
>  <COMPOUND>
COC(=O)CC=C[C@@H](C)[C@@H](C=NOC[C@@H](C)[C@H](OCc1ccccc1)C(C)C)NS(=O)(=O)c1ccc(C)cc1

>  <TARGET UNDER TEST>
Fibroblast growth factor 10 (Homo sapiens)

>  <TEST RESULT>
-0.714

$$$$
>  <COMPOUND>
CCN1C(=O)[C@H]2[C@H]3[C@H](O)[C@H](O)CC(=NO[C@@H]4O[C@H](CO)[C@@H](O)[C@H](O)[C@H]4O)[C@H]3CC[C@H]2C1=O

>  <TARGET UNDER TEST>
Fibroblast growth factor 10 (Homo sapiens)

>  <TEST RESULT>
0.456

$$$$
>  <COMPOUND>
CC(C)=CCCC(C)=CCON=C1C[C@@H](O)[C@@H](O)[C@@H]2[C@@H]3C(=O)N(Cc4ccc5c(c4)OCO5)C(=O)[C@@H]3CC[C@H]12

>  <TARGET UNDER TEST>
Fibroblast growth factor 10 (Homo sapiens)

>  <TEST RESULT>
0.797

$$$$
>  <COMPOUND>
C[C@H]1C=CCC(=O)OC[C@H](C)C(=O)N2CCC[C@H]2C(=O)OC1

>  <TARGET UNDER TEST>
Fibroblast growth factor 10 (Homo sapiens)

>  <TEST RESULT>
1.47

$$$$
